tested on: P388 leukemia ip, CD2F1 mice, survival T/C; experiment: NCI In Vivo Anticancer Drug Screen. Data for tumor model P388 Leukemia (intraperitoneal) in CD2F1 (CDF1) mice; settings: endpoint: median survival time; dose: 100.0 mg/kg/injection; schedule: Q01DX005 (ip); vehicle: Klucel (hydroxypropylcellulose) (HPC); higher = longer survival
Toxic doses and inconclusive results are not listed.
outcomeMeasure: T/C

Known results for compounds:
[Fe+2].[Fe+2].c1ccc2c(c1)-c1nc-2nc2[n-]c(nc3nc(nc4[n-]c(n1)c1ccccc41)-c1ccccc1-3)c1cc3c4nc5nc(nc6[n-]c(nc7nc(nc([n-]4)c3cc21)-c1ccccc1-7)c1ccccc61)-c1ccccc1-5: 110 % of control
Cc1cc(=O)[nH]c2cc(O)c(C(=O)O)cc12: 93 % of control
Cc1nc2ccccc2c(=O)n1-c1ccc(-c2nnc(Sc3nnc(-c4ccc(-n5c(C)nc6ccccc6c5=O)cc4)n3-c3ccccc3)n2-c2ccccc2)cc1: 101 % of control
O=C1NC(O)c2cc(Cl)ccc2O1 (centres undefined): 97 % of control
Cc1nn(C(N)=S)c(C)c1N=Nc1ccc(F)cc1: 90 % of control
CNC(=O)c1nnn(Cc2ccc(OC)cc2)c1Cl: 100 % of control
COc1ccc(C(O)c2cc(C(F)(F)F)cc(C(F)(F)F)c2)cc1OC (centres undefined): 92 % of control
CO/N=C/c1ccccc1C(=O)O: 95 % of control

Switching to the query record.
Param readout = T/C; param system = P388 leukemia ip, CD2F1 mice, survival T/C; param query = CCC1(C)c2[nH]c3ccccc3c2C(=O)NN1C(C)=O (centres undefined) ; response: value
107 % of control

###

tested on: P388 leukemia ip, CD2F1 mice, survival T/C; test: NCI In Vivo Anticancer Drug Screen. Data for tumor model P388 Leukemia (intraperitoneal) in CD2F1 (CDF1) mice; settings: endpoint: median survival time; dose: 60.0 mg/kg/injection; schedule: Q01DX005 (ip); vehicle: saline with Tween-80; higher = longer survival
Toxic doses and inconclusive results are not listed.
outcomeMeasure: T/C

Here's what some known entries look like.
CC(C)(Cl)C1ON1C(C)(C)C (centres undefined): 107 % of control
CN(C)CC1=Nc2cccc3cccc(c23)N1: 102 % of control
O=C1NC(O)(c2ccccc2)c2cnncc21 (centres undefined): 90 % of control

Item: Nc1cc(Cl)ccc1C(=O)c1ccccc1Cl Test system: P388 leukemia ip, CD2F1 mice, survival T/C Read-out: T/C Value: ?
102 % of control

###

test system: P388 leukemia ip, CD2F1 mice, survival T/C; assay: NCI In Vivo Anticancer Drug Screen. Data for tumor model P388 Leukemia (intraperitoneal) in CD2F1 (CDF1) mice; conditions: endpoint: median survival time; dose: 100.0 mg/kg/injection; schedule: Q04DX003 (ip); vehicle: saline with Tween-80; higher = longer survival
Toxic doses and inconclusive results are not listed.
outcomeMeasure: T/C

CCCCC/C(C=O)=C\c1ccccc1: 118 % of control
C(#Cc1c2ccccc2c(C#Cc2ccccc2)c2c1oc1c3ccccc3ccc12)c1ccccc1: 97 % of control
CC1(C)CCC2=C1CC[C@H]1[C@H]2CCC2=CC(=O)CC[C@@]21C: 110 % of control
Cc1ccc(NC(=O)Oc2ccc(Br)cc2Br)c([N+](=O)[O-])c1: 96 % of control
Nc1nc(Cl)c(Cl)nc1N: 100 % of control
Nc1nc(SCc2ccccc2[N+](=O)[O-])c2[nH]cnc2n1: 100 % of control

// for each compound in input: emit T/C
1. CCCCCC(C=O)C(O)(C(F)(F)F)C(F)(F)Cl (stereo unspecified)
2. CCN(CC)CCNC(=O)Cc1cc(O)c2c(c1O)C(=O)c1ccccc1C2=O
3. O=CN(c1ccccc1)c1ccccc1
4. COc1ccc(CC(=O)NCCc2ccc3cc(OC)c(OC)cc3c2)cc1OC
5. CC(C)(c1cc(Cl)c(OCCO)c(Cl)c1)c1cc(Cl)c(OCCO)c(Cl)c1

["100 % of control", "106 % of control", "109 % of control", "100 % of control", "100 % of control"]

###

I'd be grateful if you could share measured T/C for these entries.
test system: P388 leukemia ip, CD2F1 mice, survival T/C; assay: NCI In Vivo Anticancer Drug Screen. Data for tumor model P388 Leukemia (intraperitoneal) in CD2F1 (CDF1) mice; conditions: endpoint: median survival time; dose: 25.0 mg/kg/injection; schedule: Q04DX003 (ip); vehicle: saline; higher = longer survival
Inconclusive results and toxic doses are left out.

The examples below pair each entry with its known result.
COc1cccc2c1C(=O)c1c(O)c3c(c(O)c1C2=O)C[C@@](O)(C(C)=O)CC3OC1CC(NC(=O)CCCN)C(O)C(C)O1 (some centres undefined): 100 % of control
CCC[CH2][Sn]1([CH2]CCC)[O]C2C(OC)OC3COC(c4ccccc4)OC3C2[O]1 (centres undefined): 110 % of control
c1ccc(CC23CCCCC2N3)cc1 (centres undefined): 90 % of control

Requested read-out: T/C. Entry: CCCCCC1(O)OC(=O)C(C)=C1C (centres undefined)
100 % of control

###

tested on: P388 leukemia ip, CD2F1 mice, survival T/C; test: NCI In Vivo Anticancer Drug Screen. Data for tumor model P388 Leukemia (intraperitoneal) in CD2F1 (CDF1) mice; conditions: endpoint: median survival time; dose: 100.0 mg/kg/injection; schedule: Q01DX005 (ip); vehicle: Klucel (hydroxypropylcellulose) (HPC); higher = longer survival
Inconclusive results and toxic doses are left out.
For each entry below, report its T/C value.

COc1cc(C(=O)Nc2cccc(Cl)c2Cl)cc(OC)c1OC: 96 % of control
CCOC(=O)OCC1=Nc2cccc3cccc(c23)N1: 110 % of control
CC(OCc1ccccc1)C(NC(=O)OC(C)(C)C)C(=O)ON1C(=O)CCC1=O (stereo not drawn): 105 % of control
C[Si](C)(CC[Si](C)(C)OS(C)(=O)=O)OS(C)(=O)=O: 99 % of control
COc1c2c(c3c(c1CCC(=O)O)OC(C)(C)C=C3)OC(C)(C)C=C2: 100 % of control
CC1=N/C(=C\c2ccc(Br)cc2)C(=O)O1: 98 % of control
CC1C2Cc3ccc(O)cc3C1(C)CCN2CCC(=O)c1ccccc1 (stereo not drawn): 88 % of control
C=CCN=C(NC(C)(C)C)c1ccccc1: 96 % of control
c1ccc(-c2cnnc3c4ccccc4nn23)cc1: 96 % of control
OC(C1=CCCCC1)(c1ccccc1)c1ccccc1: 90 % of control

Please state T/C for every compound in the list that follows.
1. O=c1oc2c(cc1Cl)CCCC2
2. Cc1cccc(C(O)(c2cccc(C)c2)C2(O)CCN(C)CC2)c1
3. Cc1nc(N)[nH]c(=O)c1CCCNc1ccc(C(=O)NC(CCC(=O)O)C(=O)O)cc1 (stereo not drawn)

1. 101 % of control
2. 102 % of control
3. 97 % of control

###

tested on: P388 leukemia ip, CD2F1 mice, survival T/C; test: NCI In Vivo Anticancer Drug Screen. Data for tumor model P388 Leukemia (intraperitoneal) in CD2F1 (CDF1) mice; conditions: endpoint: median survival time; dose: 50.0 mg/kg/injection; schedule: Q01DX009 (ip); vehicle: saline
Inconclusive results and toxic doses are left out. How the source made its calls: active means survival T/C of 150% or more; inactive means T/C below 125% in these data.
API: response.call in true (1) (active), false (0) (inactive)

Some solved entries appear below for comparison.
NC(Cc1ccc(OC(c2ccccc2)(c2ccccc2)c2ccccc2)cc1)C(=O)O (centres undefined): false (0)
COc1cc(OC)cc(C(C)(C)C)c1: false (0)
C=CC(=O)NC(C)(C)C(=O)O: false (0)

Then there is this compound:
Which outcome did this test record for the compound Cc1ccc(NC(=O)c2cc3ccccc3cc2O)c(C)c1.Cc1ccc(NC(=O)c2cc3ccccc3cc2O)c(C)c1.[Mn+2] ?
false (0)

###

Tested on: P388 leukemia ip, CD2F1 mice, survival T/C
Assay: NCI In Vivo Anticancer Drug Screen. Data for tumor model P388 Leukemia (intraperitoneal) in CD2F1 (CDF1) mice
Conditions: endpoint: median survival time; dose: 400.0 mg/kg/injection; schedule: Q01DX001 (ip); vehicle: saline; higher = longer survival
Protocol: The antitumor activity of compounds was measured in mice bearing transplantable tumors. Survival or tumor size were measured and the results are expressed as the measurement made in the treated group (T) divided by the measurement made in the vehicle treated control group (C). The tumor model used in this assay is P388 Leukemia (intraperitoneal) in CD2F1 (CDF1) mice
Inconclusive results and toxic doses are left out.
outcomeMeasure: T/C

CN1CC[As+](Cc2ccccc2)(c2ccccc2)CC1: 104 % of control
Cc1ncc(S(=O)(=O)Cc2ccc3c(c2)OCO3)c(N)n1: 95 % of control
CC1=CC(O)(C2(C)OC(C)(C)OC2=O)CCC1 (stereo not drawn): 100 % of control
CCO/C(C)=[N+](/[O-])S(=O)(=O)c1c(C)cc(C)cc1C: 104 % of control
CC1=C(O)COc2cc(C)ccc21: 100 % of control
NNc1ncc(S(=O)(=O)Cc2ccc3c(c2)OCO3)c(N)n1: 98 % of control
O=C(O)C(O)C(O)C(O)C(O)c1nn[nH]n1 (stereo not drawn): 93 % of control

// below: T/C requested for another compound
State the recorded T/C for this entry: CCCC(OC(C)=O)c1coc(C)c1 (stereo not drawn)
104 % of control
